Target: c-Src SH2;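 also: peptide library displayed on the E. coli surface as eCPX fusions, selected cells deep-sequenced, score is each peptide's frequency after selection divided by its frequency in the input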
Experiment: SH2 binding enrichment of the phosphorylated peptide, bacterial display (enrichment ratio); higher = better substrate or ligand; peptides without Tyr show the background
readout label: SH2 binding enrichment

// worked examples, SH2 binding enrichment included
Per the records, this sequence ( TFMKKYPKVFL [CNBD1_Y70_Q69K] ) has SH2 binding enrichment equal to 1.17

// recorded SH2 binding enrichment for AFSLKYDQQTQ [SYTL4_Y366_E367D] : 0.555

SH2 binding enrichment reading for TEQDPSNNIVR [MMUT_Y364_Y364S] : 0.5

// SH2 binding enrichment lookup, sequence = NDQANYLLNTD [ADA_Y290_S291L] , result: 0.527

// SH2 binding enrichment value for EAGKVYLKAPM [CBFB_Y96] : 0.503

A = AQADIYKANFQ [IKBKG_Y308_D311N]
B = IQVNAYFSPIH [ADSL_Y432_D430N]
C = PARLEYYENEK [IRS1_Y46]
Exam item: list the entries in increasing order of SH2 binding enrichment. Please express your ranking as an ordered list of the labels.
A, B, C
(A: 0.504, B: 0.959, C: 18.6)

P = TGDFGYRTPGY [TNS2_Y668_A670T]
Q = LPEENYQVLCF [ARHGAP1_Y365_R369C]
Two entries are listed, P and Q . Which one carries the higher SH2 binding enrichment? Selection: enter the item's label.
Q
